Listed below are molecules with IC50 for Tyrosine-protein kinase receptor UFO (Homo sapiens, UniProt P30530), each taken from published literature.

The following molecules have reported results that may help.
Q: Can you share its IC50? I mean this molecule: CCc1ccc2c(c1)c(=O)c(C(=O)Nc1ccc(Oc3ccnc(N)c3Cl)c(F)c1)c(C)n2C
A: 72 nM

Q: Please answer likewise for COC[C@H](C)Nc1ncc2c(OC3CCOCC3)ncc([C@H]3CC[C@@](O)(C(F)(F)F)CC3)c2n1
A: 100 to 1000 nM

Q: Please answer likewise for O[C@H]1CC[C@H](c2cnc(OC3CCNCC3)c3cnc(N[C@H]4CCCOC4)nc32)CC1
A: 1000 to 10000 nM

Q: Please answer likewise for COCC(C)Nc1ncc2c(-c3ccc4[nH]ccc4c3)cc(C3CCC(O)CC3)n2n1 (stereo not drawn)
A: 100 to 1000 nM

Q: Please answer likewise for COc1cc2nccc(Oc3ccc(NC(=O)c4c(C)nc(C)c(C#N)c4O)cc3F)c2nc1OC
A: > 300 nM

Q: Please answer likewise for CC(C)(C)C(=O)N1CCC(n2cc(-c3cnc(N)c(-c4ncc(-c5cccc(Cl)c5)o4)c3)cn2)CC1
A: < 500 nM

Q: Please answer likewise for CCCC(C)Nc1ncc2c(=O)n(CC3CCN(C)CC3)cc([C@H]3CC[C@H](O)CC3)c2n1 (stereo partly drawn)
A: 100 to 1000 nM

Q: Please answer likewise for Cc1ccc2c(c1)c(=O)c(C(=O)Nc1ccc(Oc3ncnc4[nH]cc(-c5ccccc5)c34)c(F)c1)c(C)n2C
A: 102 nM

Continuing:
Q: Can you share its IC50? I mean this molecule: O=C(O)c1ccc(Nc2ncc3c(OC4CCNCC4)ncc([C@H]4CC[C@H](O)CC4)c3n2)cc1
A: ≤ 100 nM

Q: Please answer likewise for COC[C@H](C)Nc1ncc2c(-c3ccnc(N4CC(C)(O)C4)c3)cc(C3CCC(O)CC3)n2n1 (stereo partly drawn)
A: ≤ 100 nM

Q: Please answer likewise for C[C@@H](CC(F)(F)F)Nc1ncc2c(O[C@H]3C[C@](C)(O)C3)ncc([C@H]3CC[C@H](O)CC3)c2n1
A: 100 to 1000 nM

Q: Please answer likewise for Cc1cc(-c2cc([C@H]3CC[C@H](O)CC3)n3nc(N[C@@H](C)COC(C)C)ncc23)ccn1
A: 100 to 1000 nM

Q: Please answer likewise for COc1cc(C2CCN(C)CC2)ccc1Nc1ncc2c(n1)n1c(cc3ccccc31)c(=O)n2C
A: 1000 to 5000 nM

Q: Please answer likewise for Cc1c(C(=O)Nc2ccc(Oc3ncnc4[nH]cc(-c5ccccc5)c34)c(F)c2)c(=O)c2cc(C(C)(C)C)ccc2n1C
A: 42 nM

Q: Please answer likewise for COC[C@H](C)Nc1ncc2c(-c3cnn(CC(=O)N(C)C)c3)cc([C@H]3CC[C@H](O)CC3)n2n1
A: 100 to 1000 nM

----------
pIC50: −log10 of the molar value.
Listed below are compounds with pIC50 for Tyrosine-protein kinase receptor UFO (Homo sapiens, UniProt P30530), each taken from published literature.

The following compounds have reported results that may help.
Q: Notebook: pull reported pIC50 for Tyrosine-protein kinase receptor UFO (Homo sapiens, UniProt P30530), entry COc1cc2nccc(Oc3cnc(NC(=O)c4cn(C(C)C)nc(-c5ccc(F)cc5)c4=O)nc3)c2cc1OC
A: 8.40

Q: Please answer likewise for CCCC(C)Nc1ncc2c(=O)n(CCN3CCOCC3)cc([C@H]3CC[C@H](O)CC3)c2n1 (stereo partly shown)
A: 5.00 to 6.00

Q: Please answer likewise for C[C@@H](CC(F)(F)F)Nc1ncc2c(OC3CCOCC3)ncc([C@H]3CC[C@H](O)CC3)c2n1
A: 6.00 to 7.00

Continuing:
Q: Notebook: pull reported pIC50 for Tyrosine-protein kinase receptor UFO (Homo sapiens, UniProt P30530), entry COC[C@H](C)Nc1ncc2c([C@@H]3CCCN(c4ccnc(C)n4)C3)cc([C@H]3CC[C@H](O)CC3)n2n1
A: 5.00 to 6.00

Q: Please answer likewise for COC[C@H](C)Nc1ncc2c(-c3cnn(Cc4cc(C)nn4C)c3)cc([C@H]3CC[C@H](O)CC3)n2n1
A: ≥ 7.00

Q: Please answer likewise for COc1cc2nccc(Oc3ccc(NC(=O)c4cnc(C)c(/C=C/C(C)(C)C)c4O)cc3F)c2cc1OC
A: ≥ 7.00

Q: Please answer likewise for COC[C@H](C)Nc1ncc2c(-c3ccnc(N4CCN(S(=O)(=O)C5CC5)CC4)c3)cc([C@H]3CC[C@H](O)CC3)n2n1
A: ≥ 7.00

----------
Listed below are compounds with IC50 for Tyrosine-protein kinase receptor UFO (Homo sapiens), each taken from published literature.

Q: Can you share its IC50? I mean this compound: COC[C@@H](C)Nc1ncc2c(OC3CCOCC3)ncc([C@H]3CC[C@H](O)CC3)c2n1
A: 1000 to 10000 nM

Q: Please answer likewise for CCOC[C@H](C)Nc1ncc2c(OC3CCOCC3)ncc([C@H]3CC[C@H](O)CC3)c2n1
A: 1000 to 10000 nM

Q: Please answer likewise for CCc1ccc2c(c1)c(=O)c(C(=O)Nc1ccc(Oc3ncnc4cc(OCCCN(C)C)c(OC)cc34)c(F)c1)c(C)n2C
A: 1.1 nM

Q: Please answer likewise for COCCOc1cc2nccc(Oc3ccc(NC(=O)c4c(C)n(C)c(C)c(/C=C/C5CCCC5)c4=O)cc3F)c2nc1OC
A: ≤ 100 nM

Q: Please answer likewise for CN1CCN(Cc2ccc(Nc3nc(OCC4CCCO4)c4c(-c5ccc(F)cc5F)c[nH]c4n3)cc2)CC1 (stereo not shown)
A: < 30 nM

Continuing:
Q: Can you share its IC50? I mean this compound: COc1cc2nccc(Oc3ccc(NC(=O)c4cn(CCF)c(C)c(C5=CCCC5)c4=O)cc3F)c2nc1OC
A: ≤ 100 nM

Q: Please answer likewise for COC[C@H](C)Nc1ncc2c(-c3ccnc(N4CCN(CC5COC5)CC4)c3)cc([C@H]3CC[C@H](O)CC3)n2n1
A: ≤ 100 nM

----------
Listed below are compounds with pIC50 for Tyrosine-protein kinase receptor UFO (Homo sapiens, UniProt P30530), each taken from published literature.
pIC50: −log10 of the molar value.

The following compounds have reported results that may help.
Q: Notebook: pull reported pIC50 for Tyrosine-protein kinase receptor UFO (Homo sapiens, UniProt P30530), entry Cc1c(C(=O)Nc2ccc(Oc3ncnc4[nH]cc(-c5ccccc5)c34)c(F)c2)c(=O)c2cc(C(F)(F)F)ccc2n1C
A: 6.82

Q: Please answer likewise for CN1CC(Nc2ncc3c(OC4CCOCC4)ncc([C@H]4CC[C@H](O)CC4)c3n2)CC1=O (stereo partly drawn)
A: 5.00 to 6.00

Q: Please answer likewise for COCC(C)Nc1ncc2c(-c3ccc4cc[nH]c4c3)cc(C3CCC(O)CC3)n2n1 (stereo not drawn)
A: 6.00 to 7.00

Continuing:
Q: Notebook: pull reported pIC50 for Tyrosine-protein kinase receptor UFO (Homo sapiens, UniProt P30530), entry CN1CCN(Cc2ccc(Nc3nc(OC4CCCC4)c4c(-c5ccc(F)cc5F)c[nH]c4n3)cc2)CC1
A: > 7.52

Q: Please answer likewise for COC[C@H](C)Nc1ncc2c(-c3cnn(C4COC4)c3)cc([C@H]3CC[C@@H](O)CC3)n2n1
A: ≥ 7.00

Q: Please answer likewise for COc1cc2nccc(Oc3ccc(NC(=O)c4c5n(c(C)c(C6=CCCC6)c4=O)CCOC5)cc3)c2nc1OC
A: ≥ 7.00

----------
Listed below are molecules with IC50 for Tyrosine-protein kinase receptor UFO (Homo sapiens, UniProt P30530), each taken from published literature.

Q: Can you share its IC50? I mean this molecule: CC[C@H](C)Nc1ncc2c(N3CC[C@@H](N(C)C)C3)ncc([C@H]3CC[C@H](O)CC3)c2n1
A: 100 to 1000 nM

Q: Please answer likewise for COC[C@H](C)Nc1ncc2c(-c3cnn(Cc4noc(C)n4)c3)cc([C@H]3CC[C@H](O)CC3)n2n1
A: ≤ 100 nM

Q: Please answer likewise for CC(C)n1cc(C(=O)Nc2ccc(-c3cc(C4CCN(C5CCN(C)C5=O)CC4)n4ncnc(N)c34)cc2)c(=O)n(-c2ccccc2)c1=O (racemic)
A: < 5 nM

Q: Please answer likewise for CCCCC[C@H](C)Nc1ncc2c(-c3ccc(CN4CCN(C)CC4)cc3)cc([C@H]3CC[C@H](O)CC3)n2n1
A: ≤ 100 nM

Q: Please answer likewise for Nc1ncnn2c(C3CCN(C(=O)C4CC4)CC3)cc(-c3ccc(NC(=O)c4c5n(n(-c6ccccn6)c4=O)CCCC5)cc3)c12
A: 5 to 50 nM

Q: Please answer likewise for Nc1ncc(-c2cnn(C3CCN(C(=O)C4CC4)CC3)c2)cc1-c1ncc(-c2cccc(Cl)c2)o1
A: < 500 nM

Q: Please answer likewise for COC[C@H](C)Nc1ncc2c(-c3cnn(Cc4ccnnc4)c3)cc([C@H]3CC[C@H](O)CC3)n2n1
A: ≤ 100 nM

Q: Please answer likewise for CC(Nc1ncc2c(-c3ccc(CN4CCOCC4)cc3)cc(C3CCC(O)CC3)n2n1)C(F)(F)F (centres unmarked)
A: 100 to 1000 nM

Q: Please answer likewise for C[C@@H](CC(F)(F)F)Nc1ncc2c(O[C@H]3C[C@@H](O)C3)ncc([C@H]3CC[C@H](O)CC3)c2n1
A: 100 to 1000 nM

Q: Please answer likewise for C[C@H](Nc1ncc2c(O[C@H]3C[C@@H](O)C3)ncc([C@H]3CC[C@H](O)CC3)c2n1)C(F)F
A: 100 to 1000 nM

Q: Please answer likewise for COc1cc2c(Oc3ccc(NC(=O)C4(C(=O)Nc5ccc(F)cc5)CC4)cc3)ccnc2cc1OC(=O)N1Cc2cn(S(C)(=O)=O)nc2C1
A: 100 to 1000 nM
